B1: GMCL1 (parent)
chain: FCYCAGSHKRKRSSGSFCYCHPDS

Variants of: B1
Test: protein stability index of a GFP-peptide fusion (GPS, HEK-293T) (PSI 1-6); higher = more stable;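 note: lentivirally expressed fusions sorted by FACS into six bins by GFP to DsRed ratio, PSI derived from sequencing read proportions per bin multiplied by bin number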
Details: c terminus: a fixed tail appended
// protein stability index lookup, one value per entry
Give the figure only, with no unit attached.

Worked set:
sequence_variant=R10Q property_measured="protein stability index" recorded_measurement=2.29
sequence_variant=H8T property_measured="protein stability index" recorded_measurement=1.67

(Q) Look at this variant and give its reported protein stability index. R10V
(A) 1.81

(Q) And what about the variant C18P ?
(A) 2.1

(Q) Again, but for C18M
(A) 2.11

(Q) How about this variant: R12V
(A) 1.89

(Q) And what about the variant C20I ?
(A) 2.06

(Q) Then this variant: K11L
(A) 2.41

(Q) Also C4R ?
(A) 1.36

(Q) Continue with S24Y
(A) 1.84

(Q) Queued: C4M
(A) 2.52

(Q) Cool, now Y19Q
(A) 3.03

(Q) Same lookup for C4N , please.
(A) 2.26

(Q) Can you handle K11A next?
(A) 1.59

(Q) Let us now turn to F17V
(A) 2.04

(Q) Would you kindly repeat that for K11H ?
(A) 2.18

(Q) Next variant: H8G
(A) 2.88

(Q) Try this variant next: S14N
(A) 2.37

(Q) Field entry: A5G
(A) 1.5

(Q) How about this variant: S13D
(A) 2.74

(Q) Entry C2S please
(A) 2.25

(Q) How about this variant: S13A
(A) 1.95
